The values you see were collected from patent US8895526B2.

System: immortalized murine embryonic fibroblasts (Mef)
ASSAY_DETAILS: Pooled negative selection RNAi screening (deep sequencing)
Assay type: cell-based
STATED_CONDITIONS: deep sequencing reads, on dox compared to initial representation

| MOLECULE | Fold depletion in Mef, Fold |
| --- | --- |
| Myc.1888: shRNA, SEQ ID NO: 146 (nucleic acid) TGCTGTTGACAGTGAGCGAGAAACGACGAGAACAGTTGAATAGTGAAGCCACAGATGTATTCAACTGTTCTCGTCGTTTCCTGCCTACTGCCTCGGA | 3.83 |
| Rbks.337: shRNA, SEQ ID NO: 172 (nucleic acid) TGCTGTTGACAGTGAGCGAAGCCTCCATAATTGTCAATAATAGTGAAGCCACAGATGTATTATTGACAATTATGGAGGCTGTGCCTACTGCCTCGGA | 1.07 |
| Plod3.2501: shRNA, SEQ ID NO: 168 (nucleic acid) TGCTGTTGACAGTGAGCGAACCGTTGATATCCACATGAAATAGTGAAGCCACAGATGTATTTCATGTGGATATCAACGGTGTGCCTACTGCCTCGGA | 2.62 |
| Cx3cr1.1223: shRNA, SEQ ID NO: 111 (nucleic acid) TGCTGTTGACAGTGAGCGACTGCATCTTATGTGCAAGAAATAGTGAAGCCACAGATGTATTTCTTGCACATAAGATGCAGGTGCCTACTGCCTCGGA | 0.69 |
